experiment: inhibition of PAO1 biofilm formation – strain PAO1, LB-PBS medium, absorbance 600 nm, primary screen (AID 1176); further: test concentration not given here; conditions: P. aeruginosa PAO1 growth/biofilm, A600, 12 h; higher = more signal
Each record here notes measured z-score.
Reply briefly: the number, and no unit.

1) [N-]=[N+]=Nc1ccccc1C[C@@]1(C(=O)NCCN2CCOCC2)N=C(c2ccc(OCCCO)cc2)O[C@@H]1c1ccccc1N=[N+]=[N-] :: -0.124
2) CN(C)C(=O)[C@@]1(Cc2ccccc2)N=C(c2ccc(OCCCO)cc2)O[C@H]1c1ccccc1 :: -0.345

Please give the measured z-score for this compound: "COc1ccc(CCNC(=O)[C@@]2(c3ccc([N+](=O)[O-])cc3)CC(=O)N(C3CCCCC3)[C@@H]2c2ccc(CO)cc2)cc1"
-0.342

# iterate: "CCCC=C(CCC)[C@@H](NC(=O)c1cccs1)c1ccc(C(=O)OC)cc1"
-0.94

Queued: "COc1cc2c(cc1O)C=[N+](Cc1sc3ccccc3c1Cl)CC2"
0.034

What about "O=C(c1ccccc1)N1C(=O)[C@]2(Cc3ccccc31)N=C(c1ccc(OCCCO)cc1)O[C@@H]2c1ccccc1" ?
1.82

One more compound: "CCCCC(=C=CC[C@H](O)c1ccc(OCCO)cc1)CCO"
0.154

Can you check "CC(C)N1C(=O)C[C@@](C(=O)O)(c2ccc([N+](=O)[O-])cc2)[C@H]1c1ccc(CO)cc1" next?
0.0309

---

test: viability profiling in MM1S myeloma cells – cell-based, resazurin fluorescence, basal, 24 h, PK04 Diversity Set, profiling panel (AID 1174); conditions: higher = more signal, called active from +8 up or from −8 down;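 further: MM1S multiple myeloma cell line; test concentration not given here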
Quick reference for z-score among some compounds
Keep it simple and answer with nothing but the number.

Before answering, review these 3 worked examples.
1. CCCC=C(CCC)[C@@H](NC(=O)c1cccs1)c1ccc(C(=O)OC)cc1 :: 0.645
2. C=CCNC(=O)[C@@H]1[C@H]2C(=O)O[C@H](c3ccccc3)[C@H](c3ccccc3)N2[C@H](c2ccccc2OCCO)[C@@]12C(=O)Nc1ccc(C#CCCO)cc12 :: 0.373
3. CC(CO)N1C(=O)[C@]2(C)C3C(=O)OCCC/C=C\[C@H]3OC23C=CCN(c2ccc(Cl)cc2)C(=O)[C@@H]13 (some centres undefined) :: 0.28

# z-score lookup, item "C#CCN(Cc1ccccc1Br)[C@H](/C=C/c1ccccc1)[C@@H](O)Cc1ccccc1"
-0.309

---

test system: Inhibin beta A chain (activin A); assay: small molecules binding activin A – biochemical, small-molecule microarray, 635 nm fluorescence scan, primary screen (AID 1107); details: INHBA, higher = more signal;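 further: mouse activin A protein probed at 4.33 µg/mL on printed slides; score merges bound-protein fluorescence near 667 nm with spot signal-to-noise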
endpoint: composite z-score
Answer with a bare number; do not write a unit.

Form field: reported composite z-score of CC(C)(C)OC(=O)CC[C@@]1(C(=O)NCC(O)CO)N=C(c2ccc(OCCCO)cc2)O[C@@H]1c1ccccc1CN=[N+]=[N-] (some centres not stated)
0.349

What do you have for "COCC(=C=CC[C@H](O)c1ccc(OCCO)cc1)CCO" ?
1.43

Another: "CO[C@H]1O[C@H](CO)[C@@H](OC(=O)CCc2ccccc2)[C@@H]2OC(=O)[C@@H](Cc3ccccc3)C/C=C/C[C@H](Cc3ccccc3)C(=O)O[C@@H]12"
0.925

Same question, "CC[C@@H]1C=C(C(=O)O)[C@H](c2ccccc2)N1S(=O)(=O)c1ccc(C)cc1" this time
0.941

And "C=CCNC(=O)[C@@H]1[C@H]2C(=O)O[C@H](c3ccccc3)[C@H](c3ccccc3)N2[C@H](c2ccc(O)cc2)[C@@]12C(=O)N(C(=O)OCCOC)c1ccc(C#CC3=CCCCC3)cc12" ?
0.492

How about CC(C)C(CO)N1C(=O)[C@@H]2[C@H]3C(=O)OCC=C[C@H]3OC23C=CCN(c2ccc(Cl)cc2)C(=O)[C@@H]13 (some centres not stated) ?
0.653

How about this compound: "COc1ccc([Si](C)(C)[C@@H]2[C@@H](CC(=O)N3CCC[C@H]3CO)O[C@]3(C(=O)N(Cc4cccc(N5C(=O)COc6ccccc65)c4)c4ccccc43)[C@H]2C)cc1"
0.615

---

target: Calmodulin-1 (Homo sapiens); assay: small molecules binding Ca-loaded calmodulin-1 – biochemical, small-molecule microarray, Cy5-labelled CALM1, plus calcium, artefact control for SMM control-protein annotation, profiling panel (AID 1112); details: Cy5-CALM1 binding fluorescence, higher = more signal;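 further: score merges spot fluorescence with signal to noise from triplicate slides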
endpoint: composite z-score
# answer = number (no unit)

# count of solved cases: 5
1. COc1ccc([Si](C)(C)[C@@H]2[C@@H](CC(=O)N(CCO)Cc3ccccc3)O[C@]3(C(=O)N(Cc4cccc(N5CCCCC5=O)c4)c4ccccc43)[C@H]2C)cc1 :: 0.645
2. Cc1ccc(N2C(=O)c3ccccc3[C@@H](C(=O)NCCCN(C)C)[C@@H]2c2ccc(CO)cc2)nc1 :: -0.382
3. O=C(O)[C@@H]1[C@@H]2C(=O)N(c3ccccc3)C(=O)[C@@H]2C[C@@H]1Sc1ccccc1 :: 0.474
4. CCOC(=O)C[C@H]1[C@H](OC(=O)Cc2ccc3c(c2)OCO3)[C@@H](NC(=O)c2ccc3ccccc3n2)c2cc(OCCCO)ccc2N1C(=O)c1ccccc1 :: -0.564
5. COC(=O)c1c(CC[C@@H](CO)NC(=O)N[C@@H](C)Cn2cc(-c3ccccn3)nn2)oc(C(C)=O)c1C(=O)OC :: -1.06

Name the reported composite z-score value associated with the compound "[N-]=[N+]=Nc1ccccc1C[C@@]1(C(=O)N2CCOCC2)N=C(c2ccc(OCCCO)cc2)O[C@@H]1c1ccccc1"
-0.258

O=C1OCCC=C[C@H]2OC34C=CCN(Cn5nnc6ccccc65)C(=O)[C@H]3N(CCCO)C(=O)[C@@H]4C12 (some centres not stated) , same question.
-0.0354

---

experiment: resazurin metabolic signal in HepG2 cells – cell-based, resazurin fluorescence, 24 h, PK04 Diversity Set, profiling panel (AID 1172); details: HepG2 viability, higher = more signal; further: test concentration not given here
endpoint: z-score
Write the value as a bare number.

Returns the measured z-score for the input compound. Input: "[N-]=[N+]=Nc1ccccc1C[C@]1(C(=O)NCCN2CCOCC2)COC(c2ccc(OCCCO)cc2)=N1"
1.14

Try this compound too: CCCCCCCCCC(O)C1C=CC2C(=O)N(c3ccccc3)C(=O)C2N1Nc1cc(OC)c(OC)c(OC)c1 (configuration not stated)
-2.66

Lookup "CCOC(=O)C[C@H]1[C@H](OC(=O)c2ccc(C(=O)c3ccccc3)cc2)[C@@H](NC(=O)c2ccc3ccccc3n2)c2cc(OCCCO)ccc2N1C(=O)Cc1ccc(OC)cc1"
-0.0031

"O=C(O)[C@@H]1C[C@@H]2C(=O)N3CCC[C@H]3C(=O)N2[C@@H]1c1ccc(O)cc1" ?
-0.155

# repeat for "CC(C)=C1C(=O)C(c2ccccc2)=C2CN3C(=O)N(CCc4ccccc4)C(=O)[C@]3(Cc3ccc(C(F)(F)F)cc3)[C@H]21"
-1.09

Next compound up: "COc1ccc(CCNC(=O)[C@@]2(Sc3ccc(C)cc3)CC(=O)N(Cc3ccccc3C(F)(F)F)[C@@H]2c2ccc(CO)cc2I)cc1"
0.267

Record: "COc1ccc([Si](C)(C)[C@@H]2[C@@H](CCO)O[C@]3(C(=O)N(Cc4cccc(NC(=O)[C@H](C)O)c4)c4ccccc43)[C@H]2C)cc1"
-5.97

---

experiment: JC-1 mitochondrial signal, unstimulated adipocytes – cell-based, JC-1 fluorescence, 3T3-L1 adipocytes, 24 h, 100 nL compound, profiling panel (AID 1168); conditions: JC-1 mitochondrial fluorescence, higher = more signal, called active from +8 up or from −8 down; further: test concentration not given here
The source made the active and inactive calls.
endpoint: z-score

Returns the measured z-score for the input molecule. Input: CCCCC(O)C1C=CC2C(=O)N(C)C(=O)C2N1N(c1ccccc1)c1ccccc1 (stereo not given)
-1.3 (inactive)

And what about the molecule "CN(C)C(=O)[C@@]1(Cc2ccccc2CN=[N+]=[N-])N=C(c2ccc(OCCCO)cc2)O[C@H]1c1ccccc1N=[N+]=[N-]" ?
-0.052 (inactive)

Another molecule to check: "CCOC(=O)C1=C[C@@H](C(C)(C)C)N(S(=O)(=O)c2ccc(C)cc2)[C@H]1c1cccc2ccccc12"
0.348 (inactive)

Also check "C=C[C@H]1C(C(=O)OCC)=CC[C@@H](c2ccccc2)N1S(=O)(=O)c1ccc(C)cc1"
-0.517 (inactive)

// query: "CCCC[C@@H](O)C1=C(COC)C[C@H]2C(=O)N(C)C(=O)[C@H]2[C@H]1CO"
-0.987 (inactive)

---

experiment: probe aShh binding to arrayed compounds – biochemical, biotinylated probe, 635/667 nm fluorescence, primary screen (AID 1114); conditions: small-molecule microarray, higher = more signal;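 further: probe is biotin-labelled aShh protein from a stem cell growth factor screen; measures binding of labelled protein to compounds printed on the slide; score merges feature fluorescence at 667 nm with signal-to-noise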
endpoint: composite z-score
API doc: respond with a numeric literal and nothing else, no unit.

1) COc1cc2c(cc1O)C=[N+](Cc1sc3ccccc3c1Cl)CC2 :: -0.0626
2) COC(=O)c1c(CC[C@@H](CO)NC(=O)N[C@@H](C)Cn2cc(-c3ccccn3)nn2)oc(C(C)=O)c1C(=O)OC :: 0.123
3) C=C(C(=O)CC[C@H](OC(=O)c1ccccc1-c1ccccc1C(=O)O)c1cccc(OCCO)c1)C(C)C :: -0.0605
4) CC(C)[Si]1(C(C)C)OCc2cc(C3CC3)nc(-c3ccc(Oc4ccccc4)cc3)c21 :: -0.117
5) O=C1C2C=CC(C(O)c3cccc(O)c3)N(Nc3ccc([N+](=O)[O-])cc3)C2C(=O)N1c1ccccc1 (stereo not drawn) :: 0.0022
6) CCCC=C(CCC)[C@@H](NS(=O)(=O)CC12CCC(CC1=O)C2(C)C)c1ccc(C(=O)OC)cc1 (stereo partly drawn) :: -0.373

Can you share its composite z-score? I mean this compound: "O=C1C[C@]2(c3ccc([N+](=O)[O-])cc3)C(=O)N(C3CC3)c3cc(CO)ccc3[C@H]2N1CC12CC3CC(CC(C3)C1)C2"
-0.124

Queued: "O=C1N(Cc2ccccc2)c2ccccc2C[C@]12N=C(c1ccc(OCCCO)cc1)O[C@@H]2c1ccccc1"
-0.332

Value source: PubChem BioAssay
